Target: HCV NS3/4A protease complex (Hepatitis C virus genotype 1a, UniProt P27958, C1454S/C1711G)
Sequence (P27958 1027-1711, stated change not applied): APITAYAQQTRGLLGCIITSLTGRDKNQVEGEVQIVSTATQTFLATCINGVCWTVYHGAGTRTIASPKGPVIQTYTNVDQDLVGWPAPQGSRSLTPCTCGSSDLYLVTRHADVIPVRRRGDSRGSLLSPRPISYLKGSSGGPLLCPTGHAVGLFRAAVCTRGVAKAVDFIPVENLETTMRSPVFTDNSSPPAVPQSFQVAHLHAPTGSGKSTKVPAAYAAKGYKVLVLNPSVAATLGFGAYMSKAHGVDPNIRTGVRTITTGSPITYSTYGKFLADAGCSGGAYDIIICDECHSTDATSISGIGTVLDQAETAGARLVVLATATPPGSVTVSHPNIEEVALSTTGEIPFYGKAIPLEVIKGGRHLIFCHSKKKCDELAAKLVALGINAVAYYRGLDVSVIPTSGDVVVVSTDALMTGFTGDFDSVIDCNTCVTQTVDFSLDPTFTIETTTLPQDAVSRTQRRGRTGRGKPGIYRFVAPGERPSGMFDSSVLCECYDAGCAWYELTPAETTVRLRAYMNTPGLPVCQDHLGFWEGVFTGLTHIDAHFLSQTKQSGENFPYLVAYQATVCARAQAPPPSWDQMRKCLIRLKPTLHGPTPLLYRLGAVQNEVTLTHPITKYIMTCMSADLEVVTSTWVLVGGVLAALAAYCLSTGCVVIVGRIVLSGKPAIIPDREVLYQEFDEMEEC
Sequence (P27958 1027-1711, stated change not applied): as above
Test: Recombinant HCV NS3/4A protease complex FRET peptide assay (strain not stated)
Assay type: biochemical
Conditions: IC50, NS3/4A protease enzyme assay, strain not stated; activity ranges
pIC50: −log10 of the molar value.
Readout kind: pIC50

The following compounds have reported results that may help.
[
  {
    "Compound": "C=C[C@@H]1C[C@]1(NC(=O)C1CC(Oc2cc(-c3ccccc3)nc3cc(OC)ccc23)CN1C(=O)[C@@H](NC(=O)CCl)C(C)(C)C)C(=O)NS(=O)(=O)C1CC1 (stereo partly shown)",
    "Tgt": "HCV NS3/4A protease complex (Hepatitis C virus genotype 1a, UniProt P27958, C1454S/C1711G)",
    "pIC50": "> 7.30"
  },
  {
    "Compound": "C=C[C@@H]1C[C@]1(NC(=O)C1CC(Oc2cc(-c3ccccc3)nc3cc(OC)ccc23)CN1C(=O)[C@@H](NC(=O)Oc1ccccc1)C(C)(C)C)C(=O)NS(=O)(=O)C1CC1 (stereo partly shown)",
    "Tgt": "HCV NS3/4A protease complex (Hepatitis C virus genotype 1a, UniProt P27958, C1454S/C1711G)",
    "pIC50": "> 7.30"
  },
  {
    "Compound": "C=CC1C[C@]1(NC(=O)[C@@H]1C[C@@H](Oc2cc(-c3ccccc3)nc3cc(OC)ccc23)CN1C(=O)C(NC(=O)OC(C)(C)C)C(C)(C)C)C(=O)NS(=O)(=O)c1ccc(OC)cc1 (stereo partly shown)",
    "Tgt": "HCV NS3/4A protease complex (Hepatitis C virus genotype 1a, UniProt P27958, C1454S/C1711G)",
    "pIC50": "> 7.30"
  },
  {
    "Compound": "C=CC1C[C@]1(NC(=O)[C@@H]1C[C@@H](Oc2cc(-c3ccccc3)nc3cc(OC)ccc23)CN1C(=O)[C@@H](NC(=O)OC(C)(C)C)C(C)C)C(=O)NS(=O)(=O)C1CCC1 (stereo partly shown)",
    "Tgt": "HCV NS3/4A protease complex (Hepatitis C virus genotype 1a, UniProt P27958, C1454S/C1711G)",
    "pIC50": "> 7.30"
  }
]

Required: pIC50, one value per compound below.
1. C=CC1C[C@]1(NC(=O)[C@@H]1C[C@@H](Oc2cc(-c3ccccc3)nc3cc(OC)ccc23)CN1C(=O)C(NC(=O)OC(C)(C)C)C(C)(C)C)C(=O)NS(=O)(=O)c1c(C(C)C)cc(C(C)C)cc1C(C)C (stereo partly shown)
2. COc1ccc2c(OC3C[C@@H](C(=O)NC4(C(=O)NS(=O)(=O)C5CC5)CC45CCC5)N(C(=O)[C@@H](NC(=O)OC(C)(C)C)C(C)(C)C)C3)cc(-c3ccccc3)nc2c1 (stereo partly shown)
3. C=CCC[C@](C)(NC(=O)[C@@H]1C[C@@H](Oc2cc(-c3ccccc3)nc3cc(OC)ccc23)CN1C(=O)C(NC(=O)OC(C)(C)C)C(C)(C)C)C(=O)NS(=O)(=O)c1ccc(C#N)cc1 (stereo partly shown)
4. CCCNC(=O)N[C@H](C(=O)N1C[C@H](Oc2cc(-c3ccccc3)nc3cc(OC)ccc23)C[C@H]1C(=O)N[C@]1(C(=O)NS(=O)(=O)C2CC2)CC1CC)C(C)C (stereo in doubt)

(A)
["> 5.30", "> 6.30", "> 7.30", "> 7.30"]

Required: pIC50, one value per compound below.
1. CCC1CC1(NC(=O)[C@@H]1C[C@@H](Oc2cc(-c3ccccc3)nc3cc(OC)ccc23)CN1C(=O)[C@H](CC1CCCCC1)NC(=O)OC(C)(C)C)C(=O)NS(=O)(=O)C1CC1 (stereo partly shown) [Compound 77]
2. CCC1C[C@]1(NC(=O)[C@@H]1C[C@@H](Oc2cc(-c3ccccc3)nc3cc(OC)ccc23)CN1C(=O)[C@@H](NC(=O)OC(C)(C)C)C(C)C)C(=O)NS(=O)(=O)C1CC1 (stereo in doubt)

(A)
1: > 4.30; 2: > 7.30

Sourced from patent US6872805B2
